B1: Gamma-crystallin S, residues 96 to 176; numbered along this chain, P22914 (parent)
chain: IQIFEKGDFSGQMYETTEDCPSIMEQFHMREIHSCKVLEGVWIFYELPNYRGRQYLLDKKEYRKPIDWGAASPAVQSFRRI

Variants of: B1
Experiment: abundance fitness (aPCA) (normalised: wild type 0, dead -1); higher = more abundant; growth selection in yeast, the domain comes from the species named
Conditions: Homo sapiens
Recorded abundance fitness values for a group of variants are listed next.
Response field accepts a number only; no unit should be typed.

1. IQIFEKGDFSGQMYETTEDCPSIMEQFHMREIFSCKVLEGVWIFYELPNYRGRQYLLDKKEYRKPIDWGAASPAVQSFRRI [H33F]; 0.093
2. IQIFEKGDFSGQMYETTEDCPSIMEQFHMREINSCKVLEGVWIFYELPNYRGRQYLLDKKEYRKPIDWGAASPAVQSFRRI [H33N]; -0.01

Can you look up the measured abundance fitness of IQIFEKGDFNGQMYETTEDCPSIMEQFHMREIHSCKVLEGVWIFYELPNYRGRQYLLDKKEYRKPIDWGAASPAVQSFRRI [S10N] for me? 0.069

Given the variant IQIFEKGDFSGQMYERTEDCPSIMEQFHMREIHSCKVLEGVWIFYELPNYRGRQYLLDKKEYRKPIDWGAASPAVQSFRRI [T16R] , what is its reported abundance fitness? 0.003
